# SYSTEM_UNDER_TEST: Fes (UniProt P07332)
# Sequence (P07332 whole entry, looked up): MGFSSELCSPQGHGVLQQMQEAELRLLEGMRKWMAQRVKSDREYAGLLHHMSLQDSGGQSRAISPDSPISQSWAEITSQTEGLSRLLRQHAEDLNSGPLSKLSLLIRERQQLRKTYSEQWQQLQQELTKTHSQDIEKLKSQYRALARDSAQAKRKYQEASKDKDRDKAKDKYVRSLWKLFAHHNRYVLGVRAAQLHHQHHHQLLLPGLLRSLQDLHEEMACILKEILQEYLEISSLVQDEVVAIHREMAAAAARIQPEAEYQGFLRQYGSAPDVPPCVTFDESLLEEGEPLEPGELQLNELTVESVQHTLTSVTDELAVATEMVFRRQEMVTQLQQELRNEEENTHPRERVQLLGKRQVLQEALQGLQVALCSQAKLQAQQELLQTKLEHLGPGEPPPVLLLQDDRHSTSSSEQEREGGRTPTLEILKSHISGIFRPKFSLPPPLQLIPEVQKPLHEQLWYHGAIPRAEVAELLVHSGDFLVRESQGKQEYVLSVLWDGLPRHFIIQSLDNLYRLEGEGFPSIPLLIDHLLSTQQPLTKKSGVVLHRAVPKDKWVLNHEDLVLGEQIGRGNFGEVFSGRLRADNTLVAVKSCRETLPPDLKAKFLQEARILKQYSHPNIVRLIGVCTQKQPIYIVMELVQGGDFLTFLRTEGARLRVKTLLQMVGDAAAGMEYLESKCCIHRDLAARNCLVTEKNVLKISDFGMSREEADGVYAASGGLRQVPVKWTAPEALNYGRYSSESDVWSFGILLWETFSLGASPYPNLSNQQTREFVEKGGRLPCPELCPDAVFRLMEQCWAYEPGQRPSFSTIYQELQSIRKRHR
# PROCEDURE_DETAILS: phosphorylation enrichment, bacterial display (enrichment ratio); higher = better substrate or ligand; peptides without Tyr show the background;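 note: 11-residue human phosphosite peptides and single-mutation variants displayed on the E. coli surface, counted by deep sequencing, each peptide's frequency after selection divided by its frequency in the unselected input library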;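 note: frequency after pTyr selection over input frequency; kinase dosed for 20-30% of maximal phosphorylation in three min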
QUANTITY_MEASURED: phosphorylation enrichment

response.value for CHKRTYKVTGL (field: phosphorylation enrichment) = 0.667

response.value for FRDMDYRSFPR [RBM10_Y41_YF] (field: phosphorylation enrichment) = 0.864

response.value for KSVSQYLEMDK [CAGE1_Y438] (field: phosphorylation enrichment) = 0.803

response.value for EQLQSYQAEII [KRT33A_Y268] (field: phosphorylation enrichment) = 1.16

response.value for FGSVMYEFVGK [SLC18A1_Y251] (field: phosphorylation enrichment) = 1.76

response.value for FSQNIYIQNRN [PKP2_Y631_YF] (field: phosphorylation enrichment) = 0.62

response.value for CNRADYSKLAP [GNE_Y22] (field: phosphorylation enrichment) = 0.844

response.value for TSSAIYMNLAS [GATAD2B_Y317] (field: phosphorylation enrichment) = 1.01

response.value for TRDVNYGWIIR [MT-CYB_Y75] (field: phosphorylation enrichment) = 0.999

response.value for WIPIQYLIISE [NOG_Y222_P223L] (field: phosphorylation enrichment) = 1.43

response.value for PEADKYCLTFA [FGG_Y300_R301C_YF] (field: phosphorylation enrichment) = 1.96

response.value for NQKGKYFNVER [ANAPC4_Y469_R465Q] (field: phosphorylation enrichment) = 0.603

response.value for GVVVPYEPPEV [TP53_Y220_S215G] (field: phosphorylation enrichment) = 0.905

response.value for LIYTNYEVGKD [GSTP1_Y112_A114V] (field: phosphorylation enrichment) = 1.96

response.value for AEDKPYAELWT [MPI_Y46_M51T] (field: phosphorylation enrichment) = 1.25

response.value for TRFDEYLEVTK [MAP1A_Y2217_H2214Y_YF] (field: phosphorylation enrichment) = 1.22

response.value for QRALLYEDALF [UNC13D_Y56_YF] (field: phosphorylation enrichment) = 2.16

response.value for DQIDTYELSGA [DNM1_Y354_G359A] (field: phosphorylation enrichment) = 1.16

response.value for QRRFVYFFSFL [PTEN_Y176_YF] (field: phosphorylation enrichment) = 1.46

response.value for KVKPIYFRTQG [AR_Y916_H918R] (field: phosphorylation enrichment) = 0.644

response.value for IVRSLYEDVED [VHL_Y185_L188V] (field: phosphorylation enrichment) = 1.26

response.value for GCRSKYVGLWG [KCNQ1_Y184] (field: phosphorylation enrichment) = 0.708

response.value for EVEPRYVVLYD [ERCC4_Y577] (field: phosphorylation enrichment) = 1.13

response.value for RFLERYIFNRQ [HLA-DPB1_Y57_E62Q_YF] (field: phosphorylation enrichment) = 1.63

response.value for VKPENYRRPDI [VHL_Y175_L178P] (field: phosphorylation enrichment) = 0.699

response.value for SSYPDYLAAVD [GLB1_Y154_D151Y] (field: phosphorylation enrichment) = 1.05

response.value for RPSRQYATRDV [SCAMP3_Y35_L38R] (field: phosphorylation enrichment) = 0.498

response.value for TGDFGYRTPGF [TNS2_Y668_A670T_YF] (field: phosphorylation enrichment) = 0.632

response.value for PGVNYYFQVSA (field: phosphorylation enrichment) = 2.14

response.value for VFPIDYFFPPQ [AR_Y552_L548F_YF] (field: phosphorylation enrichment) = 1.04

response.value for KKHIPYKEHKS [CSNK1G1_Y205_R206K] (field: phosphorylation enrichment) = 2.1

response.value for DMLYQYLKQIE [RPAP3_Y569] (field: phosphorylation enrichment) = 0.887

response.value for RGNMFYENSFA [EGFR_Y113_YF] (field: phosphorylation enrichment) = 0.836

response.value for KILAKYLLETS [NAMPT_Y175] (field: phosphorylation enrichment) = 0.664

response.value for IFCIQYNICAF [MYH4_Y820_R823C] (field: phosphorylation enrichment) = 1.53

response.value for CTTIHSNYMCN [TP53_Y234_Y234S] (field: phosphorylation enrichment) = 0.915

response.value for QRKPSYNQLAS [BRCA2_Y71] (field: phosphorylation enrichment) = 0.53

response.value for ELPEKYSQNIF [PKP2_Y626_YF] (field: phosphorylation enrichment) = 1.05

response.value for PARLEYCENEK [IRS1_Y46_Y47C] (field: phosphorylation enrichment) = 1.74

response.value for NVFGNYNNQSS [HNRNPA1_Y318_D314V] (field: phosphorylation enrichment) = 0.537

response.value for HSLRDYKEALM [ADA2_Y337_H335R] (field: phosphorylation enrichment) = 1.4

response.value for AVISVYDLVAF [PSEN1_Y256_V261F] (field: phosphorylation enrichment) = 2.23

response.value for VVFIKYLPEWT [PSEN1_Y240_L235V] (field: phosphorylation enrichment) = 1.23

response.value for SQQTYYRVSNM [ABCD1_Y181] (field: phosphorylation enrichment) = 0.678

response.value for PVGDAYKKKGL [NMNAT1_Y55] (field: phosphorylation enrichment) = 0.976

response.value for KTVQDYLEKFF [MMP8_Y36_YF] (field: phosphorylation enrichment) = 1.28

response.value for EKEKKYMLPLD [DNM2_Y563] (field: phosphorylation enrichment) = 0.796

response.value for SERNNYSRVAN [CWC22_Y797] (field: phosphorylation enrichment) = 0.557

response.value for QRKRAYVEIEF [MAK16_Y282_YF] (field: phosphorylation enrichment) = 1.42

response.value for LNWIYYKDQTG [RS1_Y166] (field: phosphorylation enrichment) = 2.51

response.value for TEQDPYNNIVR [MMUT_Y364] (field: phosphorylation enrichment) = 0.978

response.value for ETKEDYEKILV [ANXA1_Y335_G333E] (field: phosphorylation enrichment) = 1.23

response.value for STEVIYQPRRK [STK11_Y36] (field: phosphorylation enrichment) = 0.523

response.value for VKKKLDEEIDQ [CYP17A1_Y329_Y329D] (field: phosphorylation enrichment) = 0.792

response.value for TSSSSYFDEPV [ARFGAP3_Y356] (field: phosphorylation enrichment) = 1.01

response.value for DAVAVYHGKIS [SH2D1A_Y7] (field: phosphorylation enrichment) = 0.744

response.value for CLGNQYVNVMN [SLC3A1_Y461_R456C] (field: phosphorylation enrichment) = 1.05

response.value for QKKPRYEIRWK [PDGFRB_Y562] (field: phosphorylation enrichment) = 1.75

response.value for SLLTDCSPQLQ [OTC_Y345_Y345C] (field: phosphorylation enrichment) = 1.06

Values from the supplement of paper PMC10065799
